# target_of_assay: Neu5Gc(b2-6)Gal(b1-4)GlcNAc
# test_details: glycan array binding signal (z-score within array); higher = stronger binding
# conditions_used: glycan notation: IUPAC condensed, linker removed
This excerpt belongs to a sample that is enriched for the strongest signals.
glycan array binding signal (z-score) values by entry

// known answers, use as guide
binder="MUB70 (Lactobacillus reuteri) (protein) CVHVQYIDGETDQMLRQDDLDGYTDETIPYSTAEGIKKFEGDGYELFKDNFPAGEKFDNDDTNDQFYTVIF" assay_value=0.109
binder="CVN (Nostoc ellipsosporum), P81180 (protein) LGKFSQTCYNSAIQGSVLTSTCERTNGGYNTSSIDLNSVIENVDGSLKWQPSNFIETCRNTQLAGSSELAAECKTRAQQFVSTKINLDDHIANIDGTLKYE" assay_value=-0.306
binder="Gal 8 (Homo sapiens), O00214 (protein) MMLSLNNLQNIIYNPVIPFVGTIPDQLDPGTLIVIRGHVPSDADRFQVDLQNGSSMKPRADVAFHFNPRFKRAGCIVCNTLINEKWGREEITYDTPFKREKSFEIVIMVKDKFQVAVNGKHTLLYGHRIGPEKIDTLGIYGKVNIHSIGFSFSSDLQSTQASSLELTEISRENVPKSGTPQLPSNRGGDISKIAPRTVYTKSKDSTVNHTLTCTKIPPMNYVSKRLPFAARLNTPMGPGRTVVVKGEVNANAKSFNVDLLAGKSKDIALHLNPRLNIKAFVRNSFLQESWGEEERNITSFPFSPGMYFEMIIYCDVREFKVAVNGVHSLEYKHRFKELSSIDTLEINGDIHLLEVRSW" assay_value=-0.452

-- ask Return the recorded glycan array binding signal (z-score) value; entry: Gal 8 (Homo sapiens), O00214_1 (protein) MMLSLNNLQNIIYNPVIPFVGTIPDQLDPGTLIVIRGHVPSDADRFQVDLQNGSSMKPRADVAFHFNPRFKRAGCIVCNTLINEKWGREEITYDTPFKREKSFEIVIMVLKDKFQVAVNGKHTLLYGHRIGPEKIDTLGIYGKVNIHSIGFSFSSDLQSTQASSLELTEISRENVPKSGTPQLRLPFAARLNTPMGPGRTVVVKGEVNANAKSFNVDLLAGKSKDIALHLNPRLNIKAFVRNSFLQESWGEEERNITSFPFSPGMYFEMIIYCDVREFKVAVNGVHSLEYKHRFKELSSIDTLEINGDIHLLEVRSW
-- reply -0.219

-- ask Return the recorded glycan array binding signal (z-score) value; entry: ERGIC1-EDTA (Homo sapiens), Q969X5 (protein) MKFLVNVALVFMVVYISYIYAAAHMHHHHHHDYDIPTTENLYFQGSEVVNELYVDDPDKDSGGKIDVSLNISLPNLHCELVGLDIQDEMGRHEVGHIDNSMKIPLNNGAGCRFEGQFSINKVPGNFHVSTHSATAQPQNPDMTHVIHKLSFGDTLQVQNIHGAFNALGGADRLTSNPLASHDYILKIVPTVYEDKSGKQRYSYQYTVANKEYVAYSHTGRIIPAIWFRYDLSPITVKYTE
-- reply -0.624
